This collection of values is drawn from PubChem BioAssay AID624204.

assayTarget: Sentrin-specific protease 1 (Homo sapiens)
protocolSummary: blockers of SENP1 SUMO protease activity – biochemical, FRET, uHTS, primary screen (AID 624204);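 note: 0% = enzyme with DMSO and 100% = no enzyme wells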
runParameters: recombinant SENP1 catalytic domain, CyPet-SUMO1-YPet FRET cleavage; at 10 µM; hits give high values
The campaign covered roughly 360,000 compounds. About 770 (0.21%) were called active. Only a selection was taken, and actives are over-represented in it overall.
inhibition: recorded values
readoutLabel: inhibition (%)

{"columns": ["compound", "val"],
 "data": [
  ["CCC1OC(c2ccc([N+](=O)[O-])cc2)=Nc2ccccc21 (stereo unspecified)", -7.92],
  ["CS(=O)(=O)Nc1ccccc1N=C(c1ccccc1)c1ccccc1", 1.89],
  ["CCOC(=O)CCC(=O)OCC(=O)NC(C)C1CC2CCC1C2 (stereo unspecified)", 2.09],
  ["CCN(CC)c1ccc(S(=O)(=O)N2CCOCC2)cc1NC(=O)CSc1cccc[n+]1[O-]", 3.85],
  ["O=C(COC(=O)Cn1cnc2ccccc2c1=O)NCC12CC3CC(CC(C3)C1)C2", -2.59],
  ["CC(CC(=O)C1C(C)C=CCC1(C)C)NNC(N)=O (stereo unspecified)", 1.56],
  ["CCn1nnnc1SCC(=O)c1ccc(C)cc1C", 1.48],
  ["CC(=O)N1CCOc2ccc(S(=O)(=O)N3CCN(c4cccc(C(F)(F)F)c4)CC3)cc21", 2.33],
  ["CCCn1c(=O)c2ccccc2n2c(SCC(=O)/C(C#N)=C(\\C)N)nnc12", -2.1],
  ["CCCC1OC23CCCCC2C(C#N)(C#N)C1(C#N)C(=N)O3 (stereo unspecified)", -28.3],
  ["Cc1cc(=O)cc(C)n1-c1ccc(Cl)c(Cl)c1", 2.24]
]}

---

assayTarget: Sentrin-specific protease 1 (Homo sapiens) (UniProt Q9P0U3)
Sequence (Q9P0U3 419-644 limits assumed): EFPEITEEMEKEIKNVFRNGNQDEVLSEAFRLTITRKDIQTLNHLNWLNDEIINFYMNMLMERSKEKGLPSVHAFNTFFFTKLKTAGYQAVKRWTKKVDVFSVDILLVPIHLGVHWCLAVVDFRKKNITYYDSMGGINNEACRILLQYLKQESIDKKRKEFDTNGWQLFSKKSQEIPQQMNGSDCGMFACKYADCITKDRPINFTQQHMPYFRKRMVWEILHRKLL
protocolSummary: blockers of SENP1 SUMO protease activity – biochemical, FRET, uHTS, primary screen (AID 624204);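 note: 0% = enzyme with DMSO and 100% = no enzyme wells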
runParameters: recombinant SENP1 catalytic domain, CyPet-SUMO1-YPet FRET cleavage; at 10 µM
Screen size: about 360,000 compounds; about 770 (0.21%) were called active.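 The calls were made as follows: active = inhibition at least 30% at 10 µM, raw YFP signal under a set limit, fluorescence ratio 0.5 to 1.5; inactive = the rest.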 The full list was thinned out, with actives kept by preference.
Possible outcomes: T (active), F (inactive)

{"columns": ["molecule", "groupLabel"],
 "data": [
  ["Cc1ncc(CO)c(/C=N/NC(=O)c2cccc(S(=O)(=O)N3CCCC3)c2)c1O", "F"],
  ["CC(=O)c1cccc(-c2cnc3c(NC=O)cc(-c4ccc(N5CCN(C)CC5)cc4)cn23)c1", "F"],
  ["O=C(Nc1ccc(F)cc1F)N1CCCN(CCOc2ccccc2)CC1", "F"],
  ["CCN1C(=O)/C(=C2\\SC(N3CCCCC3)=NC2=O)c2ccccc21", "F"],
  ["O=C(Nc1cccc(OCC(=O)N2CCOCC2)c1)C1CCCCC1", "F"],
  ["Cc1c(CN2CCC(n3nccc3NC(=O)CCc3ccccc3)CC2)cnn1C", "F"],
  ["CC(C)Oc1ccc(C(CC(=O)N2CCOCC2)C(C)C)cc1 (configuration not stated)", "F"],
  ["CN1CCN(/N=C/c2ccc(-c3ccc([N+](=O)[O-])cc3)o2)CC1", "T"],
  ["CCOc1cc(/C=C2\\SC(N3CCCC(C)C3)=NC2=O)ccc1O (configuration not stated)", "T"],
  ["O=C(CCN1C(=O)c2ccccc2C1=O)NNC(=O)c1ccc(Cl)cc1Cl", "F"],
  ["CC(C)OC(=O)CC(=O)CC(O)c1cccc([N+](=O)[O-])c1 (configuration not stated)", "F"],
  ["COC(=O)c1c(NC(=O)CN2C(=O)NC(CCc3ccccc3)C2=O)sc2c1CCCCC2 (configuration not stated)", "F"],
  ["O=C(Nc1ccc2c(c1)OCCO2)C1c2ccccc2OCC(=O)N1Cc1ccccn1 (configuration not stated)", "F"],
  ["O=C(CC1CCCCC1)NCc1ccc(F)cc1", "F"],
  ["COc1ccc(CCNS(=O)(=O)c2cc3c(cc2C)NC(=O)CO3)cc1OC", "F"],
  ["COc1ccc(CC(=O)N[C@@H]2c3cc(OC)c(OC)cc3C[C@H]2OCc2ccccc2)cc1", "F"],
  ["Cc1ccc(NC(=O)COC(=O)CCc2nc3ccccc3n2-c2ccccc2)c(C)c1", "F"],
  ["Cc1c(C(=O)NCCN2C(=O)S/C(=C\\c3cccs3)C2=O)cccc1[N+](=O)[O-]", "F"],
  ["CCOc1cc(/C=C2\\C(=N)N3N=C(C)SC3=NC2=O)ccc1OCCOc1ccccc1", "F"],
  ["COC1C(CO)OC(n2cnc3c(=S)nc(N)[nH]c32)C1O (configuration not stated)", "F"],
  ["FC(F)(F)c1ccc(-n2cn[nH]c2=S)cc1", "F"],
  ["CN1CCN(/N=C/c2ccc(C#N)cc2)CC1", "F"]
]}
